Kd values by entry
Target: T1, human a-Mesothelin (Acro Biosystems; MSN_H5223) (human, UniProt Q13421 296-580, limits assumed)
T1 construct: Bought protein immobilised on the SPR chip; Printed as 'a-Mesothelin' but used as the antigen for the anti-MSLN scFvs; also called Human MSLN; MSLN
T1 sequence (Q13421 other isoform, or with tags, fused parts or gaps limits assumed): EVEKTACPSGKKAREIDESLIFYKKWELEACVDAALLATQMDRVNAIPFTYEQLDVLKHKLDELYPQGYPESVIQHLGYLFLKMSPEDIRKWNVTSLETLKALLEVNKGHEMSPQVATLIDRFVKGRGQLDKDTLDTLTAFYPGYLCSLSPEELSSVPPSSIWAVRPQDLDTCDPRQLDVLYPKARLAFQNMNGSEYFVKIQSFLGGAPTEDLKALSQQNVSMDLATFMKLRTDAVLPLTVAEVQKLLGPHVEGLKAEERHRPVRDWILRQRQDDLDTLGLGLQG
Assay: SPR, mesothelin immobilised, scFv analyte, 1:1 fit
Procedure: The mutation variants were then injected at concentrations of 10 nM, 2 nM and 0.4 nM over the ligand-immobilized and reference spots. The wild type variants were used as a control, while an empty spot was used as reference. After each cycle with analyte, the surface was regenerated with a 3M MgCl₂ solution, thereby allowing the next analyte cycle to have only free ligand available. […]
Express the result in nM but write the number alone.

- binder: "PRO2918 (scFv 54-21-H03-sc01_(L12R, V103T, L144Q)) (scFv, VH substitutions, AHo numbering; also called PRO1922-L12R-V103T-L144Q) scFv: DIQMTQSPSSLSASVGDRVTITCQASESIYSSLAWYQQKPGKAPKLLIYLASTLASGVPSRFSGSGSGTDFTLTISSLQPEDFATYYCQSTDYTTSTHRNSFGTGTKVTVLGGGGGSGGGGSGGGGSGGGGSEVQLVESGGGRVQPGGSLRLSCAASGFSFSTTYYMCWVRQAPGKGLEWIGCTNTASSVRTYYATWAKGRFTISRDNSKNTVYLQMNSLRAEDTATYYCARDMGFADYALNLWGQGTQVTVSS"
  unit_abbreviation: "nM"
  Kd: 2.4
- binder: "PRO2936 (scFv 54-21-H03-sc01_(T101S, T146Q)) (scFv, PRO1922 variant; VH substitutions, AHo numbering; also called PRO1922 T101S-T146Q) scFv: DIQMTQSPSSLSASVGDRVTITCQASESIYSSLAWYQQKPGKAPKLLIYLASTLASGVPSRFSGSGSGTDFTLTISSLQPEDFATYYCQSTDYTTSTHRNSFGTGTKVTVLGGGGGSGGGGSGGGGSGGGGSEVQLVESGGGLVQPGGSLRLSCAASGFSFSTTYYMCWVRQAPGKGLEWIGCTNTASSVRTYYATWAKGRFTISRDNSKNTVYLQMNSLRAEDSAVYYCARDMGFADYALNLWGQGTLVQVSS"
  unit_abbreviation: "nM"
  Kd: 0.66

Okay, next one:
Problem: So what's the measured Kd for this one? PRO2945 (scFv 54-21-H03-sc01_(T101R)) (scFv, PRO1922 variant; VH substitution, AHo numbering; also called PRO1922 T101R) scFv: DIQMTQSPSSLSASVGDRVTITCQASESIYSSLAWYQQKPGKAPKLLIYLASTLASGVPSRFSGSGSGTDFTLTISSLQPEDFATYYCQSTDYTTSTHRNSFGTGTKVTVLGGGGGSGGGGSGGGGSGGGGSEVQLVESGGGLVQPGGSLRLSCAASGFSFSTTYYMCWVRQAPGKGLEWIGCTNTASSVRTYYATWAKGRFTISRDNSKNTVYLQMNSLRAEDRAVYYCARDMGFADYALNLWGQGTLVTVSS
Solution: 3
